Values were extracted from ChEMBL document CHEMBL4118233.

target system: Thymidine phosphorylase (Escherichia coli K-12, UniProt P07650)
Sequence (P07650 whole entry): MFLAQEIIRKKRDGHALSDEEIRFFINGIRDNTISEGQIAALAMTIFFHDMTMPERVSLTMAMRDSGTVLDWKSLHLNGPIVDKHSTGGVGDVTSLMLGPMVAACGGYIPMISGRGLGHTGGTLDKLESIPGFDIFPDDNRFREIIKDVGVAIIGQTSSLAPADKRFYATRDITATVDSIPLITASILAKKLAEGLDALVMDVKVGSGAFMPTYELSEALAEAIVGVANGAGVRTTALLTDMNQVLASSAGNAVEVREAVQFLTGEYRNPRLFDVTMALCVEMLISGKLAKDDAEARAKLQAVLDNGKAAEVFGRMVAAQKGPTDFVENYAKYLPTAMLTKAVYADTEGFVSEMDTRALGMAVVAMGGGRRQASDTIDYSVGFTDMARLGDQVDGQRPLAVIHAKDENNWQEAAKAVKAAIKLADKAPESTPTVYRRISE
measurement protocol: Inhibition of Escherichia coli thymidine phosphorylase pretreated for 10 mins followed by substrate addition measured at 10 mins interval for 30 mins by spectrophotometric method
run conditions: read-out: IC50
# Lookup of reported IC50 keyed by entry

Some compounds with recorded IC50:
Clc1ccc2[nH]cc(C(c3ccc(-c4nnc(-c5ccccc5Cl)o4)cc3)c3c[nH]c4ccc(Cl)cc34)c2c1 | 29.3 µM
Oc1ccccc1-c1nnc(-c2ccc(C(c3c[nH]c4ccc(Cl)cc34)c3c[nH]c4ccc(Cl)cc34)cc2)o1 | 43.5 µM
Oc1cccc(-c2nnc(-c3ccc(C(c4c[nH]c5ccc(Cl)cc45)c4c[nH]c5ccc(Cl)cc45)cc3)o2)c1O | 9.3 µM

Now for a further compound.
QUERY: Given Clc1ccc(-c2nnc(-c3ccc(C(c4c[nH]c5ccc(Cl)cc45)c4c[nH]c5ccc(Cl)cc45)cc3)o2)cc1 , state its recorded IC50.
RESULT: 46.2 µM

---

target system: Thymidine phosphorylase (Escherichia coli K-12, UniProt P07650)
measurement protocol: Inhibition of Escherichia coli thymidine phosphorylase pretreated for 10 mins followed by substrate addition measured at 10 mins interval for 30 mins by spectrophotometric method
quantity kind: IC50

Clc1ccc2[nH]cc(C(c3ccc(-c4nnc(-c5cccnc5)o4)cc3)c3c[nH]c4ccc(Cl)cc34)c2c1 | Not Active
Cc1ccc(-c2nnc(-c3ccc(C(c4c[nH]c5ccc(Cl)cc45)c4c[nH]c5ccc(Cl)cc45)cc3)o2)cc1 | Not Active
O=[N+]([O-])c1cccc(-c2nnc(-c3ccc(C(c4c[nH]c5ccc(Cl)cc45)c4c[nH]c5ccc(Cl)cc45)cc3)o2)c1 | Not Active
Clc1ccc2[nH]cc(C(c3ccc(-c4nnc(-c5ccncc5)o4)cc3)c3c[nH]c4ccc(Cl)cc34)c2c1 | Not Active
Cc1cccc(-c2nnc(-c3ccc(C(c4c[nH]c5ccc(Cl)cc45)c4c[nH]c5ccc(Cl)cc45)cc3)o2)c1 | Not Active
O=[N+]([O-])c1ccc(-c2nnc(-c3ccc(C(c4c[nH]c5ccc(Cl)cc45)c4c[nH]c5ccc(Cl)cc45)cc3)o2)cc1 | Not Active

In the following, a different compound is considered.
QUERY: What does the record list as IC50 for Cc1ccccc1-c1nnc(-c2ccc(C(c3c[nH]c4ccc(Cl)cc34)c3c[nH]c4ccc(Cl)cc34)cc2)o1 ?
RESULT: Not Active

---

target system: UniProt:P07650
measurement protocol: Inhibition of Escherichia coli thymidine phosphorylase pretreated for 10 mins followed by substrate addition measured at 10 mins interval for 30 mins by spectrophotometric method
run conditions: read-out: IC50
quantity kind: pIC50
A value of pIC50 is the negative decimal logarithm of a concentration given in moles per litre.

Oc1ccc(-c2nnc(-c3ccc(C(c4c[nH]c5ccc(Cl)cc45)c4c[nH]c5ccc(Cl)cc45)cc3)o2)cc1 | 4.61
Fc1ccc(-c2nnc(-c3ccc(C(c4c[nH]c5ccc(Cl)cc45)c4c[nH]c5ccc(Cl)cc45)cc3)o2)cc1 | 5.04

QUERY: Give recorded pIC50 with UniProt:P07650 for the following molecule: Oc1ccc(O)c(-c2nnc(-c3ccc(C(c4c[nH]c5ccc(Cl)cc45)c4c[nH]c5ccc(Cl)cc45)cc3)o2)c1
RESULT: 5.21

QUERY: Lab note: need pIC50 for Clc1cccc(-c2nnc(-c3ccc(C(c4c[nH]c5ccc(Cl)cc45)c4c[nH]c5ccc(Cl)cc45)cc3)o2)c1 on UniProt:P07650, anyone have it?
RESULT: 4.26

QUERY: Lab request: please report pIC50 under test system UniProt:P07650 for COc1ccc(O)c(-c2nnc(-c3ccc(C(c4c[nH]c5ccc(Cl)cc45)c4c[nH]c5ccc(Cl)cc45)cc3)o2)c1
RESULT: 4.34

QUERY: Request body: readout pIC50, system UniProt:P07650, query Fc1cccc(-c2nnc(-c3ccc(C(c4c[nH]c5ccc(Cl)cc45)c4c[nH]c5ccc(Cl)cc45)cc3)o2)c1 . Return the value.
RESULT: 4.53

QUERY: Notebook entry, UniProt:P07650 assay: pIC50 of Clc1ccc2[nH]cc(C(c3ccc(-c4nnc(-c5ccccn5)o4)cc3)c3c[nH]c4ccc(Cl)cc34)c2c1 = ?
RESULT: 4.42
